# credit: patent US20210221899A1

# Percent Similarity Score (KD on hN) listing for each entry below
Target: T1, human NGF (human, UniProt P01138 122-241)
T1 construct: also called human Nerve Growth Factor; hN
T1 chain: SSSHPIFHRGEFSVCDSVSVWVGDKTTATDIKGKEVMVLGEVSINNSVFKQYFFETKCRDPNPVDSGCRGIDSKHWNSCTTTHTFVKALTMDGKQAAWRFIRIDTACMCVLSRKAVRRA
Experiment: SPR (Biacore T200), 100 nM mAb on NGF chip, similarity to parent mAb
The answer is to be given in %; state only the numeric part.

>>> numeric_result("can9L12VH_N52A (antibody, V domains shown) VH: EVQLVESGGDLVKPGGSLRLSCVASGFTFSSHGMHWVRQSPGKGLQWVAVIASGGSSTYYTDAVKGRFTISRDNAKNTVYLQMNSLRAEDTAMYYCAKESVGGWEQLVGPHFDYWGQGTLVIVSS VL: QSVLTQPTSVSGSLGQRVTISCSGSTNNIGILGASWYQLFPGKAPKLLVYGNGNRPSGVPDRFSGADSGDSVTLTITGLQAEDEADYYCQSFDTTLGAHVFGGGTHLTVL")
38.2

Entry can9L12VH_Y114A (antibody, V domains shown) VH: EVQLVESGGDLVKPGGSLRLSCVASGFTFSSHGMHWVRQSPGKGLQWVAVINSGGSSTYYTDAVKGRFTISRDNAKNTVYLQMNSLRAEDTAMYYCAKESVGGWEQLVGPHFDAWGQGTLVIVSS VL: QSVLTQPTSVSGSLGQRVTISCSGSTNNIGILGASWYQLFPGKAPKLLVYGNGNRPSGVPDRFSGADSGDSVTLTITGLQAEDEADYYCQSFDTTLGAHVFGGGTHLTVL has what Percent Similarity Score (KD on hN)?
99.9
